For PIK3CA (human) (UniProt P42336), measured pIC50 is reported for the entries below.
pIC50: −log10 of the molar value.

Query string: Param item = `CC1(C)CCc2ncnc(N3CCOc4ccc(-c5cnc(N)c(S(=O)(=O)N[C@@H]6CCNC6)c5)cc4C3)c2C1` ; retrieve measured pIC50.
Result string: 7.30 to 8.00

Query string: Try this molecule next: `COC(=O)Nc1nc2ccc(-c3ccc4c(c3)CN(c3ncnc(C)c3Cc3ccc(F)cc3)CCO4)cc2[nH]1`
Result string: ≥ 8.00

Query string: Try this molecule next: `CC(=O)Nc1nc2cc(-c3ccc4c(c3)CN(c3nc(CN(C)C)nc5c3CC(C)(C)CC5)CCO4)cnc2s1`
Result string: 7.30 to 8.00

Query string: Try this molecule next: `CN(C)S(=O)(=O)c1cncc(-c2ccc3c(c2)CN(c2ncnc4c2CC(C)(C)CC4)CCO3)c1`
Result string: 6.60 to 7.30

Query string: Try this molecule next: `Cc1ncnc(N2CCOc3ccc(-c4cnc5nc(N)[nH]c5c4)cc3C2)c1Cc1ccc(F)cc1`
Result string: ≥ 8.00

Query string: Try this molecule next: `Nc1ccc(-c2ccc3c(c2)CN(c2ccnc4ccccc24)CCO3)cn1`
Result string: 6.60 to 7.30

Query string: Try this molecule next: `Cc1ncnc(N2CCOc3ccc(-c4ccc(-c5ncc[nH]5)cc4)cc3C2)c1Cc1ccc(F)cc1`
Result string: ≥ 8.00

Pending molecule:
Query string: Param item = `CNc1ncc(-c2ccc3c(c2)CN(c2ncnc4c2CC(C)(C)CC4)CCO3)cc1S(=O)(=O)NCCO` ; retrieve measured pIC50.
Result string: 7.30 to 8.00
